# System: Differentiated U937 cells
# procedure-summary: Cell viability MTT assay
# Assay type: cell-based, human
# condition-description: 4 hr in 5% FCS; negative = apparent increase in viability
Catalogue of compounds with associated MTT Assay (Viability) 4 h d-U937, percentage loss of cell viability
Numeric only. Scale: %

For orientation, consider the following solved cases.
{"smiles-structure": "COc1ccc(-n2nc(C(C)(C)C)cc2NC(=O)Nc2ccc(Oc3ccnc(NC(=O)NCCN4CCOCC4)c3)c(Cl)c2Cl)cc1", "target-or-system": "Differentiated U937 cells", "measured-number": 11.3}
{"smiles-structure": "CN(C)CCNC(=O)Nc1cc(Oc2ccc(NC(=O)Nc3cc(C(C)(C)C)nn3-c3ccc(CO)cc3)c(Cl)c2Cl)ccn1", "target-or-system": "Differentiated U937 cells", "measured-number": 6.1}
{"smiles-structure": "COCC(=O)Nc1cc(Oc2cc(Cl)c(NC(=O)Nc3cc(C(C)(C)C)nn3-c3ccc(C)cc3)cc2F)ccn1", "target-or-system": "Differentiated U937 cells", "measured-number": 0.6}
{"smiles-structure": "COc1ccc(-n2nc(C(C)(C)C)cc2NC(=O)Nc2ccc(Oc3ccnc(NC(=O)N4CC[C@@H](N(C)C)C4)c3)c(Cl)c2Cl)cc1", "target-or-system": "Differentiated U937 cells", "measured-number": "−8.7"}

CNC(=O)Nc1nccc(Oc2ccc(NC(=O)Nc3cc(C(C)(C)C)nn3-c3ccc(OC)cc3)c(Cl)c2Cl)n1 yielded MTT Assay (Viability) 4 h d-U937, percentage loss of cell viability of −25.9

CC(C)(C)c1cc(NC(=O)Nc2ccc(Oc3ccnc(NC(=O)N4CCCC4)c3)c(Cl)c2Cl)n(-c2ccc(CO)cc2)n1 yielded MTT Assay (Viability) 4 h d-U937, percentage loss of cell viability of −8.8

Cc1ccc(-n2nc(C(C)(C)C)cc2NC(=O)Nc2ccc(Oc3ccnc(NC(=O)N(C)C)c3)c(Cl)c2Cl)cc1 yielded MTT Assay (Viability) 4 h d-U937, percentage loss of cell viability of −29.7

* * *

Catalogue of compounds with associated MTT Assay (Viability) 24 h d-U937, percentage loss of cell viability
# Tested on: Differentiated U937 cells
# procedure-summary: Cell viability MTT assay
# Format: cell-based, human
# condition-description: 24 h in 10% FCS; negative = apparent increase in viability
Kindly format the answer as number then unit.

For orientation, consider the following solved cases.
{"smiles-structure": "COc1ccc(-n2nc(C(C)(C)C)cc2NC(=O)Nc2ccc(Oc3ccnc(NC(=O)N4CC[C@@H](N(C)C)C4)c3)c(Cl)c2Cl)cc1", "target-or-system": "Differentiated U937 cells", "result": "33.3%"}
{"smiles-structure": "CNC(=O)Nc1cc(Oc2ccc(NC(=O)Nc3cc(C(C)(C)C)nn3-c3ccc(CO)cc3)c(Cl)c2Cl)ncn1", "target-or-system": "Differentiated U937 cells", "result": "92.4%"}
{"smiles-structure": "COCC(=O)Nc1cc(Oc2ccc(NC(=O)Nc3cc(C(C)(C)C)nn3-c3ccc(C)cc3)c(Cl)c2C#N)ccn1", "target-or-system": "Differentiated U937 cells", "result": "64.5%"}
{"smiles-structure": "COCC(=O)Nc1cc(Oc2ccc(NC(=O)Nc3cc(C(C)(C)C)nn3-c3ccc(C)cc3)c3c2CCCC3)ccn1", "target-or-system": "Differentiated U937 cells", "result": "18.7%"}
{"smiles-structure": "COCC(=O)Nc1cc(Oc2ccc(NC(=O)Nc3cc(C(C)(C)C)nn3-c3ccc(C)cc3)c(F)c2F)ccn1", "target-or-system": "Differentiated U937 cells", "result": "82.1%"}
{"smiles-structure": "COCC(=O)Nc1cc(Oc2ccc(NC(=O)Nc3cc(C(C)(C)C)nn3-c3ccc(C)cc3)c(F)c2)ccn1", "target-or-system": "Differentiated U937 cells", "result": "76.1%"}

Alright, here's another compound for you.
COCC(=O)Nc1cc(Oc2ccc(NC(=O)Nc3cc(C(C)(C)C)nn3-c3ccc(C)cc3)c3ncccc23)ccn1 yielded MTT Assay (Viability) 24 h d-U937, percentage loss of cell viability of 28.4%
